I'd be grateful if you could share measured drug sensitivity score for these entries.
- Test system: FMOC03 (patient-derived mucinous ovarian cancer cells)
- test: drug sensitivity score (DSS3, normalised partial AUC of % inhibition dose-response) (DSS (score)); higher = more sensitive (stronger inhibition of viability); extreme values may be limits of the assay
- measurementConditions: 72 h; library: FO5A; assay format: 2D, 384-well, CellTiter-Glo
One number for each entry.

# annotated cases, reported drug sensitivity score shown
compound	measuredParameter	measured
O=C(NOCCO)c1ccc2cncn2c1Nc1ccc(I)cc1F	drug sensitivity score	1.3
Oc1ccc2c(c1)CC[C@H](c1ccccc1)[C@@H]2c1ccc(OCCN2CCCC2)cc1	drug sensitivity score	0

Go through the list and state drug sensitivity score for each entry.
1. COc1cc2ncnc(Nc3cccc(Cl)c3F)c2cc1OC(=O)N1CCN(C)C[C@H]1C
2. Cc1cc(F)c(C(=O)Nc2cccc(-c3nncn3C(C)C)n2)cc1-n1cnc(C2CC2)c1

Found:
1: 4.8; 2: 0

For each entry beneath this line, provide reported drug sensitivity score.
1. COC(=O)c1ccc2c(c1)NC(=O)/C2=C(\Nc1ccc(N(C)C(=O)CN2CCN(C)CC2)cc1)c1ccccc1
2. Clc1ccc(Nc2nnc(Cc3ccncc3)c3ccccc23)cc1
3. COc1cc([C@@H]2c3cc4c(cc3[C@@H](O[C@@H]3O[C@@H]5CO[C@@H](c6cccs6)O[C@H]5[C@H](O)[C@H]3O)[C@H]3COC(=O)[C@H]23)OCO4)cc(OC)c1O [Teniposide]
4. C=C1C[C@@H]2CC[C@@]34C[C@H]5O[C@H]6[C@@H](O3)[C@H]3O[C@H](CC[C@@H]3O[C@H]6[C@H]5O4)CC(=O)C[C@@H]3[C@@H](OC)[C@@H](C[C@H](O)CN)O[C@H]3C[C@H]3O[C@@H](CC[C@@H]1O2)C[C@@H](C)C3=C

Found:
1.8
0.2
0.5
18

For each listed entry, give its drug sensitivity score.
1. COC(=O)N[C@@H](C)CNc1nccc(-c2cn(C(C)C)nc2-c2cc(Cl)cc(NS(C)(=O)=O)c2F)n1
2. Cc1ccc(C(=O)Nc2ccc(Oc3cc4cnn(C)c4cc3-c3cn[nH]c3)c(F)c2)c(=O)n1-c1ccc(F)cc1
3. CC(C)(C#N)c1cc(Cn2cncn2)cc(C(C)(C)C#N)c1
4. CC(C)(C)NC(=O)[C@H]1CC[C@H]2[C@@H]3CC[C@H]4NC(=O)C=C[C@]4(C)[C@H]3CC[C@]12C [Finasteride]
5. CCCc1cc(C)[nH]c(=O)c1CNC(=O)c1cc(-c2ccnc(N3CCN(C)CC3)c2)cc2c1cnn2C(C)C

Found:
1: 0; 2: 1.3; 3: 0; 4: 0; 5: 0

====

- Tested on: FMOC25_2 (patient-derived low-grade serous ovarian cancer cells)
- test: drug sensitivity score (DSS3, normalised partial AUC of % inhibition dose-response) (DSS (score)); higher = more sensitive (stronger inhibition of viability); extreme values may be limits of the assay
- measurementConditions: 72 h; library: FO5A; assay format: 2D, 384-well, CellTiter-Glo
Tag: y if measured drug sensitivity score is not below 10, n if it is.

Example entries begin here.
compound	testedSystem	labelClass
CC[C@@H]1C(=O)N(C)c2cnc(Nc3ccc(C(=O)NC4CCN(C)CC4)cc3OC)nc2N1C1CCCC1	FMOC25_2	n
Cc1ccc(C(=O)Nc2cccc(C(F)(F)F)c2)cc1Nc1nc(-c2cccnc2)nc2c1cnn2C	FMOC25_2	n
Cc1cc(Nc2nc(N[C@@H](C)c3ncc(F)cn3)ncc2Cl)[nH]n1	FMOC25_2	n
CC(C)C(=O)Nc1ccc([N+](=O)[O-])c(C(F)(F)F)c1 [Flutamide]	FMOC25_2	n
CNc1nc(Nc2cn(C(C)(C)C#N)nc2C)ncc1C(F)(F)F	FMOC25_2	n

Lookup: Is it the case that CNC(=O)c1ccccc1Sc1ccc2c(/C=C/c3ccccn3)n[nH]c2c1 has drug sensitivity score reaching or exceeding 10?
Found: n
